All values here come from ChEMBL document CHEMBL4808183.

# protocol: Antiviral activity against Human coronavirus 229E infected in human embryonic lung fibroblast cells assessed as reduction in virus-induced cytopathic effect incubated for 5 days by MTS cell viability assay
# Assay type: functional, cell-based
# particulars: 120 h
pEC50: −log10 of the molar value.
Some compounds, each annotated with its measured pEC50.

smiles_text	pEC50
C=C(C)[C@@H]1CC[C@]2(C(=O)O)CC[C@]3(C)[C@H](CC[C@@H]4[C@@]5(C)Cc6nnn(CCO)c6C(C)(C)[C@@H]5CC[C@]43C)[C@@H]12	5.48
C=C(C)[C@@H]1CC[C@]2(C(=O)O)CC[C@]3(C)[C@H](CC[C@@H]4[C@@]5(C)Cc6nnn(Cc7cc(OC)cc(OC)c7)c6C(C)(C)[C@@H]5CC[C@]43C)[C@@H]12	5.62
C=C(C)[C@@H]1CC[C@]2(C(=O)O)CC[C@]3(C)[C@H](CC[C@@H]4[C@@]5(C)Cc6nnn(Cc7ccc(C)cc7)c6C(C)(C)[C@@H]5CC[C@]43C)[C@@H]12	5.21

----------
Some compounds, each annotated with its measured CC50 at 120 h.
# protocol: Cytotoxicity against mock-infected human embryonic lung fibroblast cells incubated for 5 days by MTS assay
# Assay type: cell-based
# particulars: time 5 day

smiles_text	unit_symbol	modifier	CC50 at 120 h
C=C(C)[C@@H]1CC[C@]2(C(=O)O)CC[C@]3(C)[C@H](CC[C@@H]4[C@@]5(C)Cc6nnn(Cc7cccc8[nH]ccc78)c6C(C)(C)[C@@H]5CC[C@]43C)[C@@H]12	µM	=	2.4
C=C(C)[C@@H]1CC[C@]2(C(=O)O)CC[C@]3(C)[C@H](CC[C@@H]4[C@@]5(C)Cc6nnn(Cc7ccc(N(C)C)cc7)c6C(C)(C)[C@@H]5CC[C@]43C)[C@@H]12	µM	=	16
C=C(C)[C@@H]1CC[C@]2(C(=O)O)CC[C@]3(C)[C@H](CC[C@@H]4[C@@]5(C)Cc6nnn(Cc7cc(OC)c(OC)c(OC)c7)c6C(C)(C)[C@@H]5CC[C@]43C)[C@@H]12	µM	=	10
C=C(C)[C@@H]1CC[C@]2(C(=O)O)CC[C@]3(C)[C@H](CC[C@@H]4[C@@]5(C)Cc6nnn(Cc7ccccc7)c6C(C)(C)[C@@H]5CC[C@]43C)[C@@H]12	µM	=	12
C=C(C)[C@@H]1CC[C@]2(C(=O)O)CC[C@]3(C)[C@H](CC[C@@H]4[C@@]5(C)Cc6nnn(Cc7ccc8c(c7)OCO8)c6C(C)(C)[C@@H]5CC[C@]43C)[C@@H]12	µM	=	15
N#C[C@@]1(c2ccc3c(N)ncnn23)O[C@H](CO)[C@@H](O)[C@H]1O	µM	>	100
C=C(C)[C@@H]1CC[C@]2(C(=O)O)CC[C@]3(C)[C@H](CC[C@@H]4[C@@]5(C)Cc6nn[nH]c6C(C)(C)[C@@H]5CC[C@]43C)[C@@H]12	µM	=	8.3
C=C(C)[C@@H]1CC[C@]2(C(=O)O)CC[C@]3(C)[C@H](CC[C@@H]4[C@@]5(C)Cc6nnn(CCc7c[nH]c8ccccc78)c6C(C)(C)[C@@H]5CC[C@]43C)[C@@H]12	µM	=	3.2
C=C(C)[C@@H]1CC[C@]2(C(=O)O)CC[C@]3(C)[C@H](CC[C@@H]4[C@@]5(C)Cc6nnn(Cc7ccc(F)cc7)c6C(C)(C)[C@@H]5CC[C@]43C)[C@@H]12	µM	=	9.3
C=C(C)[C@@H]1CC[C@]2(C(=O)O)CC[C@]3(C)[C@H](CC[C@@H]4[C@@]5(C)Cc6nnn([C@H](C)c7ccccc7)c6C(C)(C)[C@@H]5CC[C@]43C)[C@@H]12	µM	>	100
